molecular target: VEGFR-1 Fc chimera (UniProt P17948 27-758); assay: SPR
Sequence (P17948 27-758, change not shown): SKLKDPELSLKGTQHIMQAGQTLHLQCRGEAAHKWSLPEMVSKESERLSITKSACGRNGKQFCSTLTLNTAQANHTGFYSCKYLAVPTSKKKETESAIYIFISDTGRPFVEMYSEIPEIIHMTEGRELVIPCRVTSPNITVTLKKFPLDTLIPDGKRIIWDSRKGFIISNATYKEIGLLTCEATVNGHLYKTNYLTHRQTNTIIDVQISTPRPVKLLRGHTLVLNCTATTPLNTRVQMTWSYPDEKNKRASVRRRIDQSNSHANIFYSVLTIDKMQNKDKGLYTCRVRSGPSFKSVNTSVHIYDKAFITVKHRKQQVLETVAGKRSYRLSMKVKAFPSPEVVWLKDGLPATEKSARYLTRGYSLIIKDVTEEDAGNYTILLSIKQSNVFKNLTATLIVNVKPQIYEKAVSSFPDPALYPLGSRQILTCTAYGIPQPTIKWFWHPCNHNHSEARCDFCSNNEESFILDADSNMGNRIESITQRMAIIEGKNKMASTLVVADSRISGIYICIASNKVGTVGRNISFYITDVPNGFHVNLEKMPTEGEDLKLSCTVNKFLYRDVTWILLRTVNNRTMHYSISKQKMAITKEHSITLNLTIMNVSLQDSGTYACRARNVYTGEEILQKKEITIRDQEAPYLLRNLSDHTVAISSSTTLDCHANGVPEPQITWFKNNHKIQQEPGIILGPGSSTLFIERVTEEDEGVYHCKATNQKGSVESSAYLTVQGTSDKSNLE
quantity.kind: Kd (nM)
Quick note: give the figure in nM, leave out the unit.

Prompt: Given the binder GCTGATAGGATGGGTTGTAGGTCTAGGGGGGGGCC (structured_DNA) [Apt02] , what is its reported Kd?
Completion: 1.5
